Assay: JHH-DIPG-1 glioma cell viability, MIPE5.0 library, CellTiter-Glo luminescence, qHTS (AID 1347067);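 note: cells exposed to compound for 48 hours before readout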
Conditions: JHH-DIPG-1 glioma viability, CellTiter-Glo ATP luminescence
Records with an inconclusive call do not appear. Active and inactive are the calls of the source. No cut-off is given here; in the data, nearly all actives have AC50 up to about 26 µM.
In this exercise, the only acceptable responses are YES for active, NO for inactive

Consider the following illustrative entries.
molecule: C=CC(=O)Nc1cc2c(Nc3ccc(F)c(Cl)c3)ncnc2cc1C#CC(C)(C)N1CCN(C)CC1
assigned class: YES
//
molecule: CC(C)C[C@H](NC(=O)[C@@H](NC(=O)c1cccc(-c2ccccc2)n1)[C@@H](C)O)B(O)O
assigned class: YES
//
molecule: CNS(=O)(=O)Nc1nccc(Cc2c(C)c3ccc(Oc4ncccn4)cc3oc2=O)c1F
assigned class: YES
//
molecule: CC1=C(C(=O)Nc2cc3cn[nH]c3cc2F)C(c2ccc(C(F)(F)F)cc2)CC(=O)N1 (stereo not given)
assigned class: NO
//
molecule: COC(=O)Nc1ccc(-c2nc(N3CCOCC3)c3cnn(C4CCN(Cc5cccnc5)CC4)c3n2)cc1
assigned class: YES

Ask: # outcome recorded in this test, key = `CC(C)CC(=O)Nc1n[nH]c2c1CN(C(=O)C1CCN(C)CC1)C2(C)C`
Result: YES

Ask: Recorded test call requested for `Nc1nc(-c2nn(Cc3ccccc3F)c3ncccc23)nc(N)c1N1CCOCC1`
Result: NO

Ask: Hello, I am checking results. What call was entered for `Cc1ccc(Nc2nnc(Cc3ccncc3)c3ccccc23)cc1Br` ?
Result: YES

Ask: What was the test verdict on `CC(C)[C@@H](CS(=O)(=O)C(C)C)N1C(=O)[C@@](C)(CC(=O)O)C[C@H](c2cccc(Cl)c2)[C@H]1c1ccc(Cl)cc1` ?
Result: YES

Where these numbers come from: PubChem BioAssay
